Overview of recorded viability, T/C for various compounds
Tested on: 186277-243-T-J2-PDC complex spheroids, viability;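 note: spheroids exposed to compounds for 7 days before viability read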
Method: Anticancer human tumor 186277-243-T-J2-PDC patient-derived colon adenocarcinoma cell line growth inhibition [RAS]
Details: second compound 0.0949 µM; first compound 0.00949 µM; active compounds read low

Recorded results for 2 compounds are shown here.
{"columns": ["Compound", "viability, T/C"],
 "data": [
  ["CC1(C)CCC(Nc2ncc(C(F)(F)F)c(-c3c[nH]c4c(P(C)(C)=O)c(C#N)ccc34)n2)CN1 (centres undefined) + CCn1c(-c2cc(N3CCN(C)CC3)cnc2C(C)OC)c2c3cc(ccc31)-c1csc(n1)CC(NC(=O)C1CC1C)C(=O)N1CCCC(N1)C(=O)OCC(C)(C)C2", "5.95%"],
  ["CCc1c2c(nc3ccc(O)cc13)-c1cc3c(c(=O)n1C2)COC(=O)[C@]3(O)CC + CCn1c(-c2cccnc2C(C)OC)c2c3cc(ccc31)N1CCOC(CC(NC(=O)C(C(C)C)N(C)C(=O)C3(F)CCN(C(=O)C#CC(C)(C)N(C)C)CC3)C(=O)N3CCCC(N3)C(=O)OCC(C)(C)C2)C1", "48%"]
]}

Give measured viability, T/C for CC1(C)CCC(Nc2ncc(C(F)(F)F)c(-c3c[nH]c4c(P(C)(C)=O)c(C#N)ccc34)n2)CN1 (centres undefined) + CCn1c(-c2cccnc2C(C)OC)c2c3cc(ccc31)N1CCOC(CC(NC(=O)C(C(C)C)N(C)C(=O)C3(F)CCN(C(=O)C#CC(C)(C)N(C)C)CC3)C(=O)N3CCCC(N3)C(=O)OCC(C)(C)C2)C1 (186277-243-T-J2-PDC complex spheroids, viability).
91.9%

Output reported viability, T/C of the compound CCc1c2c(nc3ccc(O)cc13)-c1cc3c(c(=O)n1C2)COC(=O)[C@]3(O)CC + CCn1c(-c2cc(N3CCN(C)CC3)cnc2C(C)OC)c2c3cc(ccc31)-c1csc(n1)CC(NC(=O)C1CC1C)C(=O)N1CCCC(N1)C(=O)OCC(C)(C)C2 on 186277-243-T-J2-PDC complex spheroids, viability.
4.37%
